# Assay text: Inhibition of [125I]asialoorosomucoid binding to rabbit hepatic ASGPR1
# Set-up: species or system Oryctolagus cuniculus
pIC50: −log10 of the molar value.
Value type: pIC50

1. OC[C@H]1O[C@@H](O)[C@H](O)[C@@H](O)[C@@H]1O
2. OC[C@H]1O[C@@H](O)[C@H](O)[C@@H](O)[C@H]1O
Query: Higher pIC50 between 1 and 2 ? Please reply using the label of the selected record.
Response: 2
(2: 2.77, 1: 1.22)

====

# Target of assay: Asialoglycoprotein receptor 1 (Homo sapiens) (UniProt P07306)
# Sequence (P07306 whole entry, the tested form may be a part): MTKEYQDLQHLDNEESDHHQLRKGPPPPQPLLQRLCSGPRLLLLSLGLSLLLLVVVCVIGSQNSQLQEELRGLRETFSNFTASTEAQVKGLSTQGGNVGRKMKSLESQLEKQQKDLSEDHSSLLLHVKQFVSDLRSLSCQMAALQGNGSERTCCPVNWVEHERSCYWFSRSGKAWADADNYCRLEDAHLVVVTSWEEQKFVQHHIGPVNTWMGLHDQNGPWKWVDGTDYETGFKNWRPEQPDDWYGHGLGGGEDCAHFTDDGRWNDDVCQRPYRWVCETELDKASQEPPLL
# Assay text: Inhibition of D-GalNAc-PAA binding to human recombinant ASGPR1 carbohydrate recognition domain expressed in Escherichia coli AD494 by competitive solid-phase binding assay relative to D-GalNAc
Value type: Ratio IC50

Worked examples, 6 molecules total:
Molecule: N#Cc1ccc(OCc2cn([C@H]3CO[C@H](CO)[C@H](O)[C@@H]3O)nn2)cc1
Ratio IC50: 0.5

Molecule: O=[N+]([O-])c1ccc(OCc2cn([C@H]3CO[C@H](CO)[C@H](O)[C@@H]3O)nn2)cc1
Ratio IC50: 0.8

Molecule: CC(=O)N[C@H]1C(O)O[C@H](CO)[C@H](O)[C@@H]1O (some centres undefined)
Ratio IC50: 1

Molecule: CN1CCN(c2ccc(OCc3cn([C@H]4CO[C@H](CO)[C@H](O)[C@@H]4O)nn3)cc2)CC1
Ratio IC50: 0.9

Molecule: OC[C@H]1OC[C@H](n2cc(COc3c(F)c(F)c(F)c(F)c3F)nn2)[C@@H](O)[C@H]1O
Ratio IC50: 1.4

Molecule: [N-]=[N+]=N[C@H]1CO[C@H](CO)[C@H](O)[C@@H]1O
Ratio IC50: 13.7

1. OC[C@H]1OC[C@H](n2cc(COc3ccccc3)nn2)[C@@H](O)[C@H]1O
2. O=C(O)c1ccc(OCc2cn([C@H]3CO[C@H](CO)[C@H](O)[C@@H]3O)nn2)cc1
Query: Which has the higher Ratio IC50, 1 or 2 ? Label of pick, please.
Response: 2
